test-summary: Hemolytic activity in rabbit erythrocytes
Format: ADME, cell-based, Oryctolagus cuniculus, Erythrocyte
reported-conditions: read-out: HD50 (the source's name)
Give HC50 for every item shown.

Quick note, HC50 for C[C@H]1O[C@@H](O[C@@H]2[C@@H](O)[C@@H](CO)O[C@H](O[C@@H]3[C@H](O)[C@@H](O)[C@H](O[C@H]4CC[C@]5(C)[C@H]6CC=C7[C@@H]8CC(C)(C)CC[C@]8(C(=O)O)CC[C@@]7(C)[C@]6(C)CC[C@H]5C4(C)C)O[C@@H]3CO)[C@@H]2O)[C@H](O[C@@H]2OC[C@@H](O)[C@@H](O)[C@@H]2O)[C@@H](O)[C@@H]1O landed at 2.49 µM

Quick note, HC50 for C[C@@H]1O[C@@H](O[C@H]2[C@H](O[C@H]3CC[C@]4(C)[C@H]5CC=C6[C@@H]7CC(C)(C)CC[C@]7(C(=O)O)CC[C@@]6(C)[C@]5(C)CC[C@H]4C3(C)C)OC[C@H](O)[C@@H]2O[C@@H]2O[C@H](CO)[C@@H](O)[C@H](O)[C@H]2O)[C@H](O)[C@H](O)[C@H]1O landed at 3.6 µM

Quick note, HC50 for C[C@@H]1O[C@@H](O[C@H]2[C@H](O[C@H]3CC[C@]4(C)[C@H]5CC=C6[C@@H]7CC(C)(C)CC[C@]7(C(=O)O)CC[C@@]6(C)[C@]5(C)CC[C@H]4C3(C)C)OC[C@H](O)[C@@H]2O)[C@H](O)[C@H](O)[C@H]1O landed at 7.46 µM

----------
test-summary: Hemolytic activity in rabbit erythrocytes
Format: ADME, cell-based, Oryctolagus cuniculus, Erythrocyte
reported-conditions: read-out: HD50 (the source's name)
measure-name: HC50 (µM)
Only the number, expressed in µM, is required.

Quick note, HC50 for C[C@@H]1O[C@@H](O[C@H]2[C@H](O[C@H]3CC[C@@]4(C)[C@@H](CC[C@]5(C)[C@@H]4CC=C4[C@@H]6CC(C)(C)CC[C@]6(C(=O)O)CC[C@]45C)[C@]3(C)CO)OC[C@H](O[C@@H]3O[C@H](CO)[C@@H](O)[C@H](O)[C@H]3O)[C@@H]2O)[C@H](O)[C@H](O)[C@H]1O [HEDERACOLCHISIDE A] landed at 6.83

Quick note, HC50 for C[C@@H]1O[C@@H](O[C@H]2[C@H](O[C@H]3CC[C@]4(C)[C@H]5CC=C6[C@@H]7CC(C)(C)CC[C@]7(C(=O)O)CC[C@@]6(C)[C@]5(C)CC[C@H]4C3(C)C)OC[C@H](O[C@@H]3O[C@H](CO)[C@@H](O)[C@H](O)[C@H]3O)[C@@H]2O)[C@H](O)[C@H](O)[C@H]1O [HEDERACOLCHISIDE A1] landed at 3.24

Quick note, HC50 for C[C@@H]1O[C@@H](O[C@H]2[C@H](O[C@H]3CC[C@@]4(C)[C@@H](CC[C@]5(C)[C@@H]4CC=C4[C@@H]6CC(C)(C)CC[C@]6(C(=O)O)CC[C@]45C)[C@]3(C)CO)OC[C@H](O)[C@@H]2O)[C@H](O)[C@H](O)[C@H]1O [ALPHA-HEDERIN] landed at 9.04

----------
test-summary: Oil-water partition coefficient, logP of compound
Format: physicochemical
measure-name: logP
Lab note: write the figure by itself, no unit.

Quick note, logP for C[C@@H]1O[C@@H](O[C@H]2[C@H](O[C@H]3CC[C@@]4(C)[C@@H](CC[C@]5(C)[C@@H]4CC=C4[C@@H]6CC(C)(C)CC[C@]6(C(=O)O)CC[C@]45C)[C@]3(C)CO)OC[C@H](O)[C@@H]2O)[C@H](O)[C@H](O)[C@H]1O [ALPHA-HEDERIN] landed at 0.0672

Quick note, logP for C[C@@H]1O[C@@H](O[C@H]2[C@H](O[C@H]3CC[C@]4(C)[C@H]5CC=C6[C@@H]7CC(C)(C)CC[C@]7(C(=O)O)CC[C@@]6(C)[C@]5(C)CC[C@H]4C3(C)C)OC[C@H](O[C@@H]3O[C@H](CO)[C@@H](O)[C@H](O)[C@H]3O)[C@@H]2O)[C@H](O)[C@H](O)[C@H]1O [HEDERACOLCHISIDE A1] landed at 0.0406

Quick note, logP for C[C@@H]1O[C@@H](O[C@H]2[C@H](O[C@H]3CC[C@]4(C)[C@H]5CC=C6[C@@H]7CC(C)(C)CC[C@]7(C(=O)O)CC[C@@]6(C)[C@]5(C)CC[C@H]4C3(C)C)OC[C@H](O)[C@@H]2O)[C@H](O)[C@H](O)[C@H]1O landed at 0.244

The reported numbers originate from ChEMBL document CHEMBL4819123.
